test system: NCI-H1944; assay: normalised cell viability (NPI; 0 = phenylarsine oxide control, 1 = DMSO control) (fraction of DMSO control); higher = more viable cells (less compound toxicity); conditions: glucocorticoid arm: vehicle; compound 5 µM; 6 days
Structures can show the parent of a compound that is named as a salt. Over roughly 1,900 compounds, “normalised cell viability (NPI; 0 = phenylarsine oxide control, 1 = DMSO control)” has its median near 1; the lowest 2% begin near 0.039. The full list was thinned out, with the lowest values kept by preference.
readout.label: normalised cell viability
Number only, please.

Worked examples, 3 compounds total:
1) OC1(c2ccc(Cl)cc2)CCN(Cc2c[nH]c3ccccc23)CC1	0.988
2) COc1ccc2c3n(c(=NC(=O)c4cccnc4)nc2c1OC)CCN3	0.85
3) Nc1ccn([C@@H]2O[C@H](CO)[C@@H](O)C2(F)F)c(=O)n1 [Gemcitabine hydrochloride; Gemcitabine HCl]	1.01

Lookup: Entry `OC[C@H]1O[C@@H](n2cnc3c(Nc4ccccc4)ncnc32)[C@H](O)[C@@H]1O` , system NCI-H1944: what normalised cell viability was measured?
Found: 1

Lookup: Recall the recorded normalised cell viability for Nc1ncn([C@@H]2O[C@H](CO)[C@@H](O)[C@H]2O)c(=O)n1 [Azacitidine; 5-azacytidine] with NCI-H1944 and state it.
Found: 0.766

---

test system: NCI-H1944; experiment: normalised cell viability (NPI; 0 = phenylarsine oxide control, 1 = DMSO control) (fraction of DMSO control); higher = more viable cells (less compound toxicity); conditions: glucocorticoid arm: hydrocortisone 2.75 uM co-treatment; compound 5 µM; 6 days
Counter-ions that a name gives are not always drawn. In all, about 1,900 compounds were measured (“normalised cell viability (NPI; 0 = phenylarsine oxide control, 1 = DMSO control)”: median about 1, lowest 2% from about 0.039 on). The sample as a whole holds a higher share of the lowest values than the screen did.
readout.label: normalised cell viability
Please give the numeric answer without any surrounding text.

1) N[C@@H](CCC(=O)N[C@@H](CSN=O)C(=O)NCC(=O)O)C(=O)O	1.02

Lookup: Recorded normalised cell viability for `Cc1nc(C#Cc2ccnc(Cl)c2)c(C)n1-c1ccc(OC(F)(F)F)cc1` , please?
Found: 0.992

Lookup: Quick one: normalised cell viability of NCC=CC(=O)O (stereo in doubt) [cis-4-Aminocrotonic acid] ?
Found: 0.993

Lookup: Which value of normalised cell viability has been reported for CN1CCN(C2Cc3ccccc3Sc3ccc(Cl)cc32)CC1 (racemic) [(±)-Octoclothepin maleate] in the records?
Found: 0.948

Lookup: Sample `CC(C)(C)OC(=O)Nc1ccc(-c2cc(C(=O)NCCCCCCC(=O)NO)no2)cc1` — what was its normalised cell viability?
Found: 0.244

Lookup: So what does the record say about normalised cell viability for `Cc1ccc(S(=O)(=O)N[C@@H](Cc2ccccc2)C(=O)CCl)cc1` ?
Found: 1.01

---

# Lookup of reported normalised cell viability keyed by entry
test system: NCI-H1944; experiment: normalised cell viability (NPI; 0 = phenylarsine oxide control, 1 = DMSO control) (fraction of DMSO control); higher = more viable cells (less compound toxicity); conditions: glucocorticoid arm: vehicle; compound 5 µM; 6 days
Over roughly 1,900 compounds, “normalised cell viability (NPI; 0 = phenylarsine oxide control, 1 = DMSO control)” has its median near 1; the lowest 2% begin near 0.039. Shown is part of a subset that was picked to be rich in the lowest values.
Answer with a bare number; do not write a unit.

1) Clc1ccc(C(c2ccc(Cl)cc2)[n+]2ccn(CC(OCc3ccc(Cl)cc3Cl)c3ccc(Cl)cc3Cl)c2)cc1 (stereo not drawn) [Calmidazolium chloride]	0.00119
2) C[n+]1cc2c3c(ccc2c2ccc4cc5c(cc4c21)OCO5)OCO3 [Sanguinarine chloride]	-0.000203
3) CCOC(=O)[C@]12CC1/C(=N\O)c1ccccc1O2 (stereo partly drawn)	1
4) COc1ncc(-c2ccc3nccc(-c4ccnnc4)c3c2)cc1NS(=O)(=O)c1ccc(F)cc1F	0.0214
5) CCCCCCCCCCCCCCCCCCNC(=O)OCC(COP(=O)([O-])OCC[n+]1ccsc1)OC (stereo not drawn)	0.82
6) O=[N+]([O-])c1ccc(-c2nc(-c3ccc(F)cc3)c(-c3ccncc3)[nH]2)cc1	0.962

Lookup: Value lookup for normalised cell viability; key = `O=C1OC(=O)[C@H]2[C@@H]1[C@@H]1CC[C@H]2O1`
Found: 1

Lookup: Recorded normalised cell viability for S=C(S)OC1CC2CC1C1CCCC21 (stereo not drawn) , please?
Found: 1.03

---

Overview of reported normalised cell viability across a group of compounds:
test system: NCI-H1944; test: normalised cell viability (NPI; 0 = phenylarsine oxide control, 1 = DMSO control) (fraction of DMSO control); higher = more viable cells (less compound toxicity); details: glucocorticoid arm: vehicle; compound 1 µM; 6 days
Where a name gives a salt, the structure may show the parent alone. In all, about 1,900 compounds were measured (“normalised cell viability (NPI; 0 = phenylarsine oxide control, 1 = DMSO control)”: median about 1, lowest 2% from about 0.039 on). Many of the other results were omitted from the sample, so the lowest values are more common in it than they were.

# example entries with known answers
1) COc1[nH]c2ccc(F)cc2c1C(=O)OCC1CCN(CCNS(C)(=O)=O)CC1.NS(=O)(=O)O	0.999
2) COC(=O)C(C)(N)Cc1ccc(O)cc1 (racemic) [alpha-Methyl-DL-tyrosine methyl ester hydrochloride]	0.994
3) CNC(=O)[C@H]1O[C@@H](n2cnc3c(NCc4ccc(N)cc4)ncnc32)[C@H](O)[C@@H]1O	0.987
4) Cn1cc(C(=O)OCC2CCN(CCNS(C)(=O)=O)CC2)c2ccccc21	1.02
5) c1cc(CN2CCCNCCNCCCNCC2)ccc1CN1CCCNCCNCCCNCC1 [Plerixafor]	1.01

Lookup: Fill in the blank: the reported normalised cell viability of CC(/C=C/c1cccc(Oc2ccc(F)cc2)c1)N(O)C(N)=O (stereo not drawn) is ____.
Found: 1.02

Lookup: Would you mind telling me what normalised cell viability value was observed for COC[C@H](NC(=O)c1cnc(C)s1)C(=O)N[C@@H](COC)C(=O)N[C@@H](Cc1ccccc1)C(=O)[C@@]1(C)CO1 [Oprozomib (ONX 0912)] ?
Found: 0.0106

Lookup: Reported normalised cell viability for C/C=C1\C(=O)C[C@H]2[C@@H]3CCC4=CC(=O)CC[C@]4(C)[C@H]3CC[C@]12C [(Z)-Guggulsterone] : what is it?
Found: 0.995

---

test system: NCI-H1944; test: normalised cell viability (NPI; 0 = phenylarsine oxide control, 1 = DMSO control) (fraction of DMSO control); higher = more viable cells (less compound toxicity); conditions: glucocorticoid arm: hydrocortisone 2.75 uM pre-treated 2 days and continued; compound 1 µM; 6 days
Structures can show the parent of a compound that is named as a salt. In all, about 1,900 compounds were measured (“normalised cell viability (NPI; 0 = phenylarsine oxide control, 1 = DMSO control)”: median about 1, lowest 2% from about 0.039 on). The entries come from a sample that favours the lowest values as a whole.
readout.label: normalised cell viability
# answer = number (no unit)

Some solved cases for reference:
1. Nc1ncnc2c1nc(Br)n2C1OC2COP(=O)(O)O[C@@H]2C1O (stereo not given in full) [8-Bromo-cAMP sodium]	0.983
2. Cc1cc(Nc2ccc(NC(=O)c3ccc(Nc4ccnc5ccccc45)cc3)cc2)nc(N)n1	0.978
3. CCc1ccc(/C=C2/SC(=S)NC2=O)cc1	1.04
4. Nc1c(O)cc(O)cc1C=Cc1ccc(O)cc1 [Aminoresveratrol sulfate]	1.01
5. N=C(N)NCCCCN [Agmatine sulfate]	1
6. Clc1ccc(C(c2ccc(Cl)cc2)[n+]2ccn(CC(OCc3ccc(Cl)cc3Cl)c3ccc(Cl)cc3Cl)c2)cc1 (stereo not given) [Calmidazolium chloride]	0.993
7. c1ccc2c(c1)CC(N1CCN(c3cccc4c3OCCO4)CC1)C2	0.995
8. Cc1ccc(C(=O)c2cc(/C=C/C(=O)NO)n(C)c2)cc1	1
9. CC(C)[C@H](C(=O)Nc1ccc(C(=O)NO)cc1)c1ccccc1	0.897
10. O=C(O)[C@H]1NCCC[C@H]1C(=O)O (relative stereo) [cis-Piperidine-2,3-dicarboxylic acid]	1

Lookup: normalised cell viability / NCI-H1944 / `COc1[nH]c2ccc(F)cc2c1C(=O)OCC1CCN(CCNS(C)(=O)=O)CC1.NS(=O)(=O)O`
Found: 1.02

Lookup: normalised cell viability of C=CCN1CCc2c(cc(O)c(O)c2Cl)C(c2ccccc2)C1 (racemic) [(±)-Chloro-APB hydrobromide] on NCI-H1944?
Found: 0.989

---

system: NCI-H1944; experiment: normalised cell viability (NPI; 0 = phenylarsine oxide control, 1 = DMSO control) (fraction of DMSO control); NCI-H1944 is a non-small cell lung cancer line; higher = more viable cells (less compound toxicity); conditions: glucocorticoid arm: vehicle; compound 5 µM; 6 days;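 also: CTB read-out in 384-well plates, triplicate wells, NPI normalised per plate against 1 µM phenylarsine oxide (0) and 0.1% DMSO (1) controls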
In all, about 1,900 compounds were measured (“normalised cell viability (NPI; 0 = phenylarsine oxide control, 1 = DMSO control)”: median about 1, lowest 2% from about 0.039 on). The entries come from a sample that favours the lowest values as a whole.
readout.label: normalised cell viability

Lookup: normalised cell viability of CCCCCCCCCCCCCCCCCCOCC(COP(=O)([O-])OCC[N+](C)(C)C)OC (centres undefined) on NCI-H1944?
Found: 0.996
